Target: T1, GARS, endogenous in H929 multiple myeloma cells (human, UniProt P41250 37-739, limits assumed)
T1 construct: Native protein pulled down from H929 lysates; also called Glycyl-tRNA synthetase; GlyRS
T1 sequence: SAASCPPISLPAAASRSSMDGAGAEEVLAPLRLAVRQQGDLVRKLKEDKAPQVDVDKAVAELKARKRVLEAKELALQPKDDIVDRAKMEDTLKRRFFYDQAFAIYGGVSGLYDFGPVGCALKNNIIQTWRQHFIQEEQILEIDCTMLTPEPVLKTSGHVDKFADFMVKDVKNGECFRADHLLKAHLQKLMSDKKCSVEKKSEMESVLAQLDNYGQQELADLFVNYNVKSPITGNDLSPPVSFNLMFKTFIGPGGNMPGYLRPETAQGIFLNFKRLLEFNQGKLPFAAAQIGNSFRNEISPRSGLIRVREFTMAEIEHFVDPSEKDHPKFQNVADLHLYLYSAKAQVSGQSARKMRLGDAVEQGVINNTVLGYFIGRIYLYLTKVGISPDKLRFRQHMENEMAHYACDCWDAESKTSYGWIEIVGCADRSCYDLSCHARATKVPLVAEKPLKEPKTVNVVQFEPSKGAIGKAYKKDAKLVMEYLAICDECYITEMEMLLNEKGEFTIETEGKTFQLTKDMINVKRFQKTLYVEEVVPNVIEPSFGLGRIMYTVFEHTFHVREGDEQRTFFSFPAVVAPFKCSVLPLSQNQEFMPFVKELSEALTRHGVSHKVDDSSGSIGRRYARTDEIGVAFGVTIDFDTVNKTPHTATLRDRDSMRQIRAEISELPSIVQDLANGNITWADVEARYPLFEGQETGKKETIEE
Assay: flow cytometry, H929 + PTPRG siRNA; None 490; surface target GARS putative
endpoint: mAb binding (MFI)
Just the number, please.

HW-56 chimeric rabbit-human IgG1 LA/LA/PG (antibody, V domains shown, Fc-silenced (L234A/L235A/P329G) IgG1, kappa; Alexa Fluor 647-labeled in single-step flow cytometry; Cluster C-45) VH: QSVKESEGGLFKPTDTLTLTCTASGFTVSTNAVTWVRQAPGNGLEYIGTIGRSGSAYFASWAKRRSTLTRDINLNTVTLKMTSLTAADTATYFCVRGSPGYRTAISIWGPGTLVTISS VL: AVMTQTPSSTSAAVEGTVTINCQASQSISNRLSWFQQKPGQPPKLLIYQASTLASGVPSRFKGSGSGTEFTLTISGVQREDAATYYCLGSYSSSDASFGGGTKLEIKR : 479000

Name the recorded mAb binding (MFI) of the binder listed here: HW-28 chimeric rabbit-human IgG1 LA/LA/PG (antibody, V domains shown, Fc-silenced (L234A/L235A/P329G) IgG1, lambda; Alexa Fluor 647-labeled in single-step flow cytometry; Cluster C-45) VH: QKQLVESGGRLVTPGTPLTLTCTASGFSLSSNAMSWVRQAPGEGLQWIGTISSGGSTYYASWAKGRFTISKTSTTVTLKMTSLTTEDTATYFCARGADLHRLWGPGTLVTVSS VL: SFVLTQPASVQVNLGQTVSLTCTGKPLSRSFASWYQQKPGQAPVLVIYRDTSRPSGVPDRFSGSSSGNTATLTISGAQAGDEADYYCATSDGSGSSYQYVFGGGTQLTVTG
41900

Name the recorded mAb binding (MFI) of the binder listed here: HW-45 chimeric rabbit-human IgG1 LA/LA/PG (antibody, V domains shown, Fc-silenced (L234A/L235A/P329G) IgG1, lambda; Alexa Fluor 647-labeled in single-step flow cytometry; Prototype of cluster C-45) VH: QKQLVESGGRLVTPGTPLTLTCTVSGFSLSSYAMGWFRQAPGKGLEWIGIINSYGSTYYASWAKGRFTISKTSTTVDLKITSPTTEDTATYFCGRRIGSARFDPWGPGTLVTVSS VL: SFVLTQPASVQVNLGQTVSLTCTADTLSRSYASWYQQKPGQAPVLLIYRDTRRPSGVPDRFSGSSSGNTATLTISGAQAGDEADYYCATSDGSGSSYRLVFGGGTQLTVTG
23200

Name the recorded mAb binding (MFI) of the binder listed here: HW-81 chimeric rabbit-human IgG1 LA/LA/PG (antibody, V domains shown, Fc-silenced (L234A/L235A/P329G) IgG1, lambda; Alexa Fluor 647-labeled in single-step flow cytometry; Cluster C-45) VH: QKQLVESGGGLVTPGGTLTLTCTVSGFSLSSNGVSWVRQAPGKGLEYIGLIRSIGSTYYATWAKGRFTISKTSTTVDLKITSPTTEDTATYFCARGGYRNGFKLWGPGTLVTVSS VL: QPVLTQSPSVSAALGASAKLTCTLSSAHKTYYIEWYQQQHPGKAPRYLMQLQSDGSYTKGTGVPDRFSGSSSGADRYLIISSVQAEDEADYICGVIDSAVYVFGGGTQLTVTG
630000

Name the recorded mAb binding (MFI) of the binder listed here: HW-8 chimeric rabbit-human IgG1 LA/LA/PG (antibody, V domains shown, Fc-silenced (L234A/L235A/P329G) IgG1, kappa; Alexa Fluor 647-labeled in single-step flow cytometry; Cluster C-45) VH: QSLEESGGRLVTPGTPLTLTCTVSGFSLSSYAMSWVRQAPGKGLEWIGAISTGGSTTYASWAKGRFTISKTSSTTVDLKMTSLTTEDTATYFCVRHFRLWGPGTLVTISS VL: QVLTQTPSSVSAAVGGTVTIKCQASQSIGSALAWFQQKPGQRPKLLIYRASNLASGVPSRFKGSGSGTEFALTISGVQREDAATYYCLGGAAAVWAFGAGTNVEIKR
13600

Name the recorded mAb binding (MFI) of the binder listed here: HW-16 chimeric rabbit-human IgG1 LA/LA/PG (antibody, V domains shown, Fc-silenced (L234A/L235A/P329G) IgG1, kappa; Alexa Fluor 647-labeled in single-step flow cytometry; Cluster C-45) VH: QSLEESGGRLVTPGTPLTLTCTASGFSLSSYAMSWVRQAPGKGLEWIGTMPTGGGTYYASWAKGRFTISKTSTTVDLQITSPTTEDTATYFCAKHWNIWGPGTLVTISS VL: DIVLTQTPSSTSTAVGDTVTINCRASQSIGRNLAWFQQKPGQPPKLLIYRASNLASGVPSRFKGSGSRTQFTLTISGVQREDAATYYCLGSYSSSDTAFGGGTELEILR
41600
